Below, each entry is listed with its recorded pEC50.
Molecular target: T1, ectodomain of human CD98hc (human, UniProt P08195 105-529)
T1 chain: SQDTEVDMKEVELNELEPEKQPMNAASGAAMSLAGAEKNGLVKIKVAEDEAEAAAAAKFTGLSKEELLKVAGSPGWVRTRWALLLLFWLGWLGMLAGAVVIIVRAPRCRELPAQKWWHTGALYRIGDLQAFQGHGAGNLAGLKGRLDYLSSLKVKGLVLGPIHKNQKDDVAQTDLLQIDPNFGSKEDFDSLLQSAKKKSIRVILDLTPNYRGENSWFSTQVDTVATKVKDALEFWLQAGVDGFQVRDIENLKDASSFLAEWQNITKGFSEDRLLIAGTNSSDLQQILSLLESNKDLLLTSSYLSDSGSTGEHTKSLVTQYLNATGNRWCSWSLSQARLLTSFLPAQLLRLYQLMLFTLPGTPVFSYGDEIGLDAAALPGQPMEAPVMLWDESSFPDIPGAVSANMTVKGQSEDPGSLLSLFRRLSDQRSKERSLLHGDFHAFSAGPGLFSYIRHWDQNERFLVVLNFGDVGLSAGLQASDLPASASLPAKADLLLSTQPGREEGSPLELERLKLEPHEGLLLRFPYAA
Test: ELISA, VNAR-hFc titrated on coated human CD98hc
pEC50: −log10 of the molar value.
READOUT: pEC50

• F12 variant F12-G02 as VNAR-hFc fusion (Fc fusion, not shown: human IgG1 Fc (hinge, CH2 and CH3) as encoded by vector pFUSE-hIgG1e3-Fc2) ARVDQTPQTITKEEGESLTINCVLRVHGRALASTSWYRKKSGSTREETISKGGRYVETVNSGSKSFSLRINDLTVEDSGTYRCNVYGLMNVDIEGVKKIDVYGDGTAVTVNA = 8.00
• F12 variant F12-A01 as VNAR-hFc fusion (Fc fusion, not shown: human IgG1 Fc (hinge, CH2 and CH3) as encoded by vector pFUSE-hIgG1e3-Fc2) ARVDQTPQTITKEEGESLTINCVLRVHGRALASTSWYRKKSGSTREETISKGGRYVETVNSGSKSFSLRINDLTVEDSGTYRCNVNGLSSGDKEGVKKIDVYGDGTAVTVNA = 8.00
• F12 variant F12-H04 as VNAR-hFc fusion (Fc fusion, not shown: human IgG1 Fc (hinge, CH2 and CH3) as encoded by vector pFUSE-hIgG1e3-Fc2) ARVDQTPQTITKEEGESLTINCVLRVHGRALASTSWYRKKSGSTREETISKGGRYVETVNSGSKSFSLRINDLTVEDSGTYRCNVYGLMQGDIEGVKKIDVYGDGTAVTVNA = 7.70
